Organism: Mus musculus
Test: Compounds were evaluated for phototoxicity no-effect dose in mouse
Type: functional
Measurement kind: Dose (mg/kg)
Write the answer as a number in mg/kg, unit excluded.

* CCNC[C@@H]1CCN(c2c(F)cc3c(=O)c(C(=O)O)cn(CC)c3c2F)C1 | 1.5

Read the next record carefully.
Sure, the documented Dose for `CN[C@H](C)[C@@H]1CCN(c2nc3c(cc2F)c(=O)c(C(=O)O)cn3C2CC2)C1` is 30

* * *

Tested on: Escherichia coli
Test: Antibacterial activity in vitro against Escherichia coli Vogel
Format: functional
Measurement kind: MIC (µg/mL)
Write it as a number; the unit µg/mL goes unstated.

Recorded results for 3 compounds are shown here.
- CCN[C@H](C)[C@H]1CCN(c2cc3c(cc2F)c(=O)c(C(=O)O)cn3C2CC2)C1 (mixture of isomers; form 1): 0.4
- CN[C@H](C)[C@H]1CCN(c2c(F)c(N)c3c(=O)c(C(=O)O)cn(C4CC4)c3c2F)C1 (mixture of isomers): 0.025
- C[C@H](N)[C@H]1CCN(c2c(F)c(N)c3c(=O)c(C(=O)O)cn(C4CC4)c3c2F)C1 (stereo in doubt; 32F-S,R): 0.05

MIC reported for this compound CN[C@H](C)[C@H]1CCN(c2cc3c(cc2F)c(=O)c(C(=O)O)cn3C2CC2)C1 (mixture of isomers) : 0.2

The reported value for C[C@@H](N)[C@H]1CCN(c2cc3c(cc2F)c(=O)c(C(=O)O)cn3C2CC2)C1 (racemic) in terms of MIC is 0.05

According to the records, this compound CC(N)C1CCN(c2c(F)cc3c(=O)c(C(=O)O)cn(C4CC4)c3c2C(F)(F)F)C1 (racemic) displays MIC of 0.2

For this compound ( `CN[C@@H](C)[C@@H]1CCN(c2nc3c(cc2F)c(=O)c(C(=O)O)cn3C2CC2)C1` ), measured MIC is 0.1

Numbers sourced from ChEMBL document CHEMBL1126988.
